relative viability values by entry
- System: NCI-H661
- experimental protocol: relative viability (nuclei count vs DMSO), 5 days (fraction); higher = more cells survive
- conditions used: first compound 1.265 µM

Examples with their reported relative viability follow.
Clc1ccc(Nc2nnc(Cc3ccncc3)c3ccccc23)cc1 [Vatalanib] + O=C(c1cc(Cc2n[nH]c(=O)c3ccccc23)ccc1F)N1CCN(C(=O)C2CC2)CC1 [Olaparib] (partner 8 µM) = 0.73
Clc1ccc(Nc2nnc(Cc3ccncc3)c3ccccc23)cc1 [Vatalanib] + C[C@@H](Oc1cc(-c2cnn(C3CCNCC3)c2)cnc1N)c1c(Cl)ccc(F)c1Cl [Crizotinib] (partner 1 µM) = 0.885
Clc1ccc(Nc2nnc(Cc3ccncc3)c3ccccc23)cc1 [Vatalanib] + O=C(CCCCCCC(=O)Nc1ccccc1)NO [Vorinostat] (partner 1 µM) = 0.775
Clc1ccc(Nc2nnc(Cc3ccncc3)c3ccccc23)cc1 [Vatalanib] + C[C@]1(O)C[C@@H](c2nc(-c3ccc4ccc(-c5ccccc5)nc4c3)c3c(N)nccn32)C1 [Linsitinib] (partner 1 µM) = 0.581

Next molecule, relative viability to be filled in.
Query: Tell me the measured relative viability of COc1cc(N2CCC(C(N)=O)CC2)ccc1Nc1nc(N)c(Cl)c(Nc2ccccc2S(=O)(=O)C(C)C)n1 [HG-5-88-01] + CC(=O)c1c(C)c2cnc(Nc3ccc(N4CCNCC4)cn3)nc2n(C2CCCC2)c1=O [Palbociclib] (partner 0.5 µM) , please.
Response: 0.359

----------
- Tested on: LC-2-ad
- experimental protocol: relative viability (nuclei count vs DMSO), 5 days (fraction); higher = more cells survive
- conditions used: first compound 0.04 µM
relative viability values by entry
Field format: numeric only.

Examples with their reported relative viability follow.
C[C@@H]1CN(CC(=O)Nc2ccc3c(c2)Cc2cccc(-c4cc(=O)cc(N5CCOCC5)o4)c2S3)C[C@H](C)O1 + C[C@]1(O)C[C@@H](c2nc(-c3ccc4ccc(-c5ccccc5)nc4c3)c3c(N)nccn32)C1 [Linsitinib] (partner 1 µM) = 0.798
Clc1ccc(Nc2nnc(Cc3ccncc3)c3ccccc23)cc1 [Vatalanib] + Cc1nc(NC(=O)N2CCC[C@H]2C(N)=O)sc1-c1ccnc(C(C)(C)C(F)(F)F)c1 [Alpelisib] (partner 2 µM) = 0.86
Clc1ccc(Nc2nnc(Cc3ccncc3)c3ccccc23)cc1 [Vatalanib] + CC(=O)Nc1cccc(-n2c(=O)n(C3CC3)c(=O)c3c(Nc4ccc(I)cc4F)n(C)c(=O)c(C)c32)c1 [Trametinib] (partner 0.02 µM) = 0.97
Clc1ccc(Nc2nnc(Cc3ccncc3)c3ccccc23)cc1 [Vatalanib] + CS(=O)(=O)N1CCN(Cc2cc3nc(-c4cccc5[nH]ncc45)nc(N4CCOCC4)c3s2)CC1 [Pictilisib] (partner 1 µM) = 0.574
COc1cc(N2CCC(C(N)=O)CC2)ccc1Nc1nc(N)c(Cl)c(Nc2ccccc2S(=O)(=O)C(C)C)n1 [HG-5-88-01] + Cc1nc(Nc2ncc(C(=O)Nc3c(C)cccc3Cl)s2)cc(N2CCN(CCO)CC2)n1 [Dasatinib] (partner 0.075 µM) = 0.633
C[C@@H]1CN(CC(=O)Nc2ccc3c(c2)Cc2cccc(-c4cc(=O)cc(N5CCOCC5)o4)c2S3)C[C@H](C)O1 + CS(=O)(=O)N1CCN(Cc2cc3nc(-c4cccc5[nH]ncc45)nc(N4CCOCC4)c3s2)CC1 [Pictilisib] (partner 1 µM) = 1.12
Clc1ccc(Nc2nnc(Cc3ccncc3)c3ccccc23)cc1 [Vatalanib] + COc1cc2c(Oc3ccc(NC(=O)C4(C(=O)Nc5ccc(F)cc5)CC4)cc3F)ccnc2cc1OCCCN1CCOCC1 [Foretinib] (partner 0.25 µM) = 0.999
C[C@@H]1CN(CC(=O)Nc2ccc3c(c2)Cc2cccc(-c4cc(=O)cc(N5CCOCC5)o4)c2S3)C[C@H](C)O1 + Cc1nc(Nc2ncc(C(=O)Nc3c(C)cccc3Cl)s2)cc(N2CCN(CCO)CC2)n1 [Dasatinib] (partner 0.075 µM) = 0.583
Clc1ccc(Nc2nnc(Cc3ccncc3)c3ccccc23)cc1 [Vatalanib] + NC(=O)Nc1cc(-c2cccc(F)c2)sc1C(=O)N[C@H]1CCCNC1 [AZD7762] (partner 0.2 µM) = 0.897

Query: Tell me the measured relative viability of COc1cc(N2CCC(C(N)=O)CC2)ccc1Nc1nc(N)c(Cl)c(Nc2ccccc2S(=O)(=O)C(C)C)n1 [HG-5-88-01] + O=C(CCCCCCC(=O)Nc1ccccc1)NO [Vorinostat] (partner 1 µM) , please.
Response: 0.804
